Molecular target: HER-2 (Homo sapiens, UniProt P04626)
Construct: His6 with thrombin site (N)
Sequence (P04626 679-1255): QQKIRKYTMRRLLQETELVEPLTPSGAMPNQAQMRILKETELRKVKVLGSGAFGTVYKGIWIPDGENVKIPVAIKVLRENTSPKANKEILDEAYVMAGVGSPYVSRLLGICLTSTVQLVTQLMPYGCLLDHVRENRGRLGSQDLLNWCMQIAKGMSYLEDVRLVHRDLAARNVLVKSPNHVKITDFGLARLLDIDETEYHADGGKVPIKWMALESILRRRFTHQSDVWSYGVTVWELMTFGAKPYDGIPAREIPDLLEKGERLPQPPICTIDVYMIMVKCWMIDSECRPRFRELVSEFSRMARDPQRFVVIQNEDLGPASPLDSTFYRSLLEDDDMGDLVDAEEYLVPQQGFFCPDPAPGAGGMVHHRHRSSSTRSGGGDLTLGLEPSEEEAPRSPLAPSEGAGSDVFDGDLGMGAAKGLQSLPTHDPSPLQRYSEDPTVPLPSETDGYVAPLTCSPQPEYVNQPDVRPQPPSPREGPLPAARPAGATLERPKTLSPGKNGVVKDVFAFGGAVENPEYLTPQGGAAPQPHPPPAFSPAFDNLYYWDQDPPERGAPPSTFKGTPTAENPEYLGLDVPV
Assay: HER-2 Kinase Assay
Conditions: value in parentheses
metric-name: IC50 (nM)
One number for each entry, in nM.

Look over these answered cases.
## Task I am curious: what IC50 value has been reported for O=C(Nc1ccc(CN2CCCCC2)cc1)c1sc2ncnc3c2c1NC(=O)N3c1ccc(Oc2ccccc2)c(Br)c1 ?
## Result 83

## Task I am curious: what IC50 value has been reported for O=C(Nc1ccc(CN2CCOCC2)cc1)c1sc2ncnc3c2c1NC(=O)N3c1c(Cl)cccc1Cl ?
## Result 7070

## Task I am curious: what IC50 value has been reported for O=C(Nc1ccc(C(O)CN2CCOCC2)cc1)c1sc2ncnc3c2c1NC(=O)N3c1ccc(Oc2ccccc2)cc1 (stereo not drawn) ?
## Result 818

## Task I am curious: what IC50 value has been reported for CN1CCC(NC(=O)c2sc3ncnc4c3c2NC(=O)N4c2ccc(OCc3ccco3)c(Cl)c2)CC1 ?
## Result 1190

## Task I am curious: what IC50 value has been reported for O=C(Nc1ccc(CCN2CCCCC2)cc1)c1sc2ncnc3c2c1NC(=O)N3c1ccc(Oc2ccccc2)c(F)c1 ?
## Result 536

## Task I am curious: what IC50 value has been reported for O=C(Nc1ccc(CN2CCCC(CO)C2)cc1)c1sc2ncnc3c2c1NC(=O)N3c1ccc(Oc2ccccc2)cc1 (stereo not drawn) ?
## Result 450

Count: 4. Required value per item: IC50.
1. O=C(Nc1ccc(NCCCN2CCOCC2)nc1)c1sc2ncnc3c2c1NC(=O)N3c1ccc(Br)cc1F
2. CN(C)c1cc(NC(=O)c2sc3ncnc4c3c2NC(=O)N4c2ccc(Oc3ccccc3)cc2)ccc1CN1CCOCC1
3. O=C(Nc1ccc(CN2CCOCC2)cc1)c1sc2ncnc3c2c1NC(=O)N3c1ccc(Oc2ccccc2)c(F)c1
4. O=C(Nc1ccc(CN2CCCCC2)cc1)c1sc2ncnc3c2c1NC(=O)N3c1ccc(F)c(Br)c1

## Result
1760
24
89
327

## Task I am curious: what IC50 value has been reported for COc1cc(NC(=O)c2sc3ncnc4c3c2NC(=O)N4c2ccc(OCc3cccs3)c(Cl)c2)ccc1CN1CCOCC1 ?
## Result 17

---

Molecular target: EGFR (Homo sapiens, UniProt P00533)
Construct: The intracellular portion of EGFR started at nucleotide 2189 (corresponding to amino acid 667) and ended at the termination codon; made in house; host or cells: Sf9 insect cells (baculovirus)
Sequence (P00533 669-1210 limits assumed): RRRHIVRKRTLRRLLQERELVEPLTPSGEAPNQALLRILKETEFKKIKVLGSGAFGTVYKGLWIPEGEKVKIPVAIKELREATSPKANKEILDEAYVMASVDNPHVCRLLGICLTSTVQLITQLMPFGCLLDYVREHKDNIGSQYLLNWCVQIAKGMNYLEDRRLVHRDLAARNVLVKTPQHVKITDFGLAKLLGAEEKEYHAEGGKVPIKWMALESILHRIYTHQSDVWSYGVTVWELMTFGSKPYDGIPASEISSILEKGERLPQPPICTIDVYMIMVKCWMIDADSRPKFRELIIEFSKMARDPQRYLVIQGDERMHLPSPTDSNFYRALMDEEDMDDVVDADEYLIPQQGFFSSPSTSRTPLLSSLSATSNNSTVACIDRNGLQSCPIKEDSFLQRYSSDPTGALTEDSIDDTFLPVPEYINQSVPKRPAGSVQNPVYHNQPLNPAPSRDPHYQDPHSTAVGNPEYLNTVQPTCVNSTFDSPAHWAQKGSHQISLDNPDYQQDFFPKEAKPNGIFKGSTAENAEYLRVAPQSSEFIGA
Assay: EGFR Kinase Assay
Assay type: biochemical
Conditions: test concentration of 2 μM; compounds without an IC50; read-out: EGFR inhibition in percent
Answer each item with its documented inhibition at 2 µM.
Give bare numbers, in %.

## Task I am curious: what inhibition at 2 µM value has been reported for O=C(Nc1ccc(CN2CCOCC2)cc1)c1sc2ncnc3c2c1NC(=O)N3c1ccc(-c2ccc(Cl)cc2)cc1 [Cpd 140] ?
## Result 20

Count: 3. Required value per item: inhibition at 2 µM.
1. Cc1ccc(-n2nc(C(C)(C)C)cc2N2C(=O)Nc3c(C(=O)Nc4ccc(CN5CCOCC5)cc4)sc4ncnc2c34)cc1 [Cpd 76]
2. COc1cc(N2C(=O)Nc3c(C(=O)N(C)C)sc4ncnc2c34)ccc1Br [Cpd 83]
3. O=C(Nc1ccc(CN2CCCCC2)cc1)c1sc2ncnc3c2c1NC(=O)N3c1cc(OCc2cccc(F)c2)c(Cl)cc1Cl [Cpd 57]

## Result
1: 7; 2: -2; 3: 12

Values were extracted from patent US7579356B2.
